# STUDY_TARGET: human PPARγ- LBD (Homo sapiens)
# Construct: a mixture of a human PPARγ- LBD labelled with glutathione S-transferase (GST)
# Sequence (P37231 238-503 limits assumed): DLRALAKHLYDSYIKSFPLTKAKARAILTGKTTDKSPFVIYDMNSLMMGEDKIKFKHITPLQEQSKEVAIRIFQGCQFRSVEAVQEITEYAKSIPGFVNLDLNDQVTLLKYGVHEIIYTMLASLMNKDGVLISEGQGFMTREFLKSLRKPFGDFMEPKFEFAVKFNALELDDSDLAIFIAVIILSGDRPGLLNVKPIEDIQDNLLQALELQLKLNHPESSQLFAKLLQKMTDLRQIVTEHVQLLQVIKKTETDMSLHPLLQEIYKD
# TEST_METHOD_NOTES: Lanthascreen TR-FRET PPARγ competitive binding assay
# REPORTED_CONDITIONS: TR-FRET, 0.16 µM
Item-by-item account of Raw Data - Background
Just the number please, in RLU, no unit attached.

Examples with their reported Raw Data - Background follow.
> print(dat)
                                smiles.repr  result
1  C=CCc1ccc(OCC(=O)Nc2ccc([N+](=O)[O-])cc2)c(OC)c1   1.724
2        C=CCc1ccc(OCC(=O)Nc2ccccc2)c(OC)c1   1.736
3       C=CCc1ccc(OCC(=O)Nc2ccccc2C)c(OC)c1    1.76
4    C=CCc1ccc(OCC(=O)Nc2cccc(Cl)c2)c(OC)c1   1.688
5      C=CCc1ccc(OCC(=O)Nc2ccccc2Cl)c(OC)c1   1.945

We now examine a further molecule.
Query: Name the recorded Raw Data - Background of the molecule listed here: C=CCc1ccc(OCC(=O)Nc2cccc(C(F)(F)F)c2)c(OC)c1
Reply: 1.78
